Biological target: T1, IFN-αF (human, UniProt P01568 24-189)
T1 chain: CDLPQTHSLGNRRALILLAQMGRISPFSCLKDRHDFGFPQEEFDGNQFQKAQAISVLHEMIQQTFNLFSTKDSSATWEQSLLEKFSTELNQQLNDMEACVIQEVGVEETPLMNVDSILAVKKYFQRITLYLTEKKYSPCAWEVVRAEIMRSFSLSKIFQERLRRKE
Assay: cell-based or functional assay
PROPERTY_NAME: IC50, ISRE assay (nM)
Answers are plain numbers, in nM.

>  <BINDER>
IFWM3400 (antibody, IgG1, V domains shown, mAb; IgG1/kappa said of the parent and of selected mAbs; also called IFWB3135) VH: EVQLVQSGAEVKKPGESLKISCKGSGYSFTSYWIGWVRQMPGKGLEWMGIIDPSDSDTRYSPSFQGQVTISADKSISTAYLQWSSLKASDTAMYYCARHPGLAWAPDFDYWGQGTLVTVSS VL: DIQMTQSPSSLSASVGDRVTITCRASQSIADFLNWYQQKPGKAPKLLIYFASSLQSGVPSRFSGSGSGTDFTLTISSLQPEDFATYYCQQSHSFPLTFGQGTKVEIK

>  <UNIT_SYMBOL>
nM

>  <IC50, ISRE assay>
0.043

$$$$

Query binder follows.
// field: IC50, ISRE assay; key: IFWM3304 (antibody, IgG1, V domains shown) VH: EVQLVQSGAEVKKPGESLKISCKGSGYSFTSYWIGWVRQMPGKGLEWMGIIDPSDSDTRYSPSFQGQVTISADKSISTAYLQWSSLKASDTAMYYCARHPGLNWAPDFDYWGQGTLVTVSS VL: DIQMTQSPSSLSASVGDRVTITCRASQSIGSALNWYQQKPGKAPKLLIYFASSLQSGVPSRFSGSGSGTDFTLTISSLQPEDFATYYCQQSYDFPLTFGQGTKVEIK ; value = 0.062

Values were extracted from patent US20150368338A1.
